Target: UniProt:Q96LB2
Sequence (Q96LB2 whole entry): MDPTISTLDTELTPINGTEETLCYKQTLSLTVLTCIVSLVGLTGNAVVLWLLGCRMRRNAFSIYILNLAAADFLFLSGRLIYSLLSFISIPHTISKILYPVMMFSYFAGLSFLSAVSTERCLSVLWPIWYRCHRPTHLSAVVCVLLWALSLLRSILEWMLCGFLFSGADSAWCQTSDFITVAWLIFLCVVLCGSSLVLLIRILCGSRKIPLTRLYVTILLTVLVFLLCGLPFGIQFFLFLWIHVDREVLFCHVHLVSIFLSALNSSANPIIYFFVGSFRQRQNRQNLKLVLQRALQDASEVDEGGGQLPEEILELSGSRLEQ
Experiment: Positive allosteric modulator activity at human MRGPRX1 transfected in HEK293 cells assessed as maximal efficacy in presence of BAM8-22 by Fulo4AM dye based FLIPR assay relative to control
Assay type: cell-based
Conditions: filed as positive allosteric modulator
Measure name: Emax
Please answer in the form of a number followed by its unit of measurement.

Below are worked cases with known answers.
- Structure string: "Cc1cccc(Oc2ncnc3sc(C)c(C)c23)c1"
  Emax: "40%"
- Structure string: "Cc1sc2ncnc(Oc3ccccc3F)c2c1C"
  Emax: "112%"
- Structure string: "Cc1sc2ncnc(Oc3cccc(F)c3)c2c1C"
  Emax: "55%"

QUERY: Given the molecule Cc1csc2ncnc(Oc3ccccc3F)c12 , write its reported Emax.
RESULT: 94%

QUERY: For the molecule Cc1sc2ncnc(Oc3ccccc3)c2c1C , report Emax.
RESULT: 89%

QUERY: Tell me measured Emax for CC(C)(C)c1sc2ncnc(Oc3ccccc3OC(F)(F)F)c2c1-c1ccc(Cl)c(Cl)c1 please.
RESULT: 114%

----------
Experiment: Metabolic stability in human microsome assessed as compound remaining measured after 60 min in presence of NADPH regenerating system by LC-MS/MS analysis
Assay type: ADME, Liver
Details: microsomes, 1 h
Measure name: Stability (%)
Provide the reading as a plain figure in %.

Solved cases below.
- Structure string: "CC(C)(C)c1sc2ncnc(Oc3ccccc3F)c2c1-c1ccc(F)cc1"
  Stability, %: 88
- Structure string: "CC(C)(C)c1cc2c(Oc3ccccc3F)ncnc2s1"
  Stability, %: 61

Next molecule, Stability to be filled in.
QUERY: Look up and state reported Stability for CC(C)(C)c1sc2ncnc(Oc3ccccc3F)c2c1-c1ccccc1
RESULT: 78

----------
Reported Emax values for the following compounds.
Biological target: UniProt:Q96LB2
Test: Positive allosteric modulator activity at human MRGPRX1 transfected in HEK293 cells assessed as maximal efficacy in presence of BAM8-22 by Fulo4AM dye based FLIPR assay relative to control
Assay type: cell-based
Conditions: filed as positive allosteric modulator
Give the value in % but do not write % after it.

- Structure string: "CC(C)(C)c1cc2c(Oc3ccccc3F)ncnc2s1"
  Subject of test: "UniProt:Q96LB2"
  Emax / %: 105
- Structure string: "CC(C)(C)c1sc2ncnc(Oc3ccccc3F)c2c1-c1ccc(F)cc1"
  Subject of test: "UniProt:Q96LB2"
  Emax / %: 145
- Structure string: "Cc1ccccc1Oc1ncnc2sc(C)c(C)c12"
  Subject of test: "UniProt:Q96LB2"
  Emax / %: 118
- Structure string: "CC(C)(C)c1sc2ncnc(Oc3ccccc3F)c2c1-c1ccccc1"
  Subject of test: "UniProt:Q96LB2"
  Emax / %: 95
- Structure string: "Cc1sc2ncnc(Oc3ccc(F)cc3)c2c1C"
  Subject of test: "UniProt:Q96LB2"
  Emax / %: 83
- Structure string: "Cc1ccccc1Oc1ncnc2sccc12"
  Subject of test: "UniProt:Q96LB2"
  Emax / %: 88

QUERY: Give me measured Emax, please, for this compound: Cc1cc2c(Oc3ccccc3F)ncnc2s1
RESULT: 90

QUERY: Give a short answer stating reported Emax for Fc1ccccc1Oc1ncnc2scc(C(F)(F)F)c12 .
RESULT: 94

QUERY: Please list Emax recorded for the compound CC(C)(C)c1sc2ncnc(Oc3ccccc3OC(F)(F)F)c2c1-c1ccc(F)cc1
RESULT: 143

QUERY: Give Emax for the following compound: Cc1sc2ncnc(Oc3ccccc3C(F)(F)F)c2c1C
RESULT: 95

QUERY: Input Fc1ccccc1Oc1ncnc2sccc12 , output reported Emax.
RESULT: 95

QUERY: Note Emax for the compound shown: Cc1ccc(Oc2ncnc3sc(C)c(C)c23)cc1
RESULT: 88

----------
Assay: Metabolic stability in mouse microsome assessed as compound remaining measured after 60 min in presence of NADPH regenerating system by LC-MS/MS analysis
Type: ADME, Liver
Conditions: microsomes, 1 h
Measure name: Stability

QUERY: Fill in reported Stability for this entry: Fc1ccccc1Oc1ncnc2scc(C(F)(F)F)c12
RESULT: < 5%

QUERY: Dear colleague, please send me the reported Stability for CC(C)(C)c1cc2c(Oc3ccccc3F)ncnc2s1 when you can.
RESULT: < 5%

QUERY: Recall and state the measured Stability for CC(C)(C)c1sc2ncnc(Oc3ccccc3OC(F)(F)F)c2c1-c1ccc(Cl)c(Cl)c1 .
RESULT: 25%

QUERY: Using the record for Cc1sc2ncnc(Oc3ccccc3F)c2c1C , state its measured Stability.
RESULT: < 5%

QUERY: Please give the documented Stability of CC(C)(C)c1sc2ncnc(Oc3ccccc3OC(F)(F)F)c2c1-c1ccc(F)cc1
RESULT: 5%

QUERY: Answer with reported Stability of CC(C)(C)c1sc2ncnc(Oc3ccccc3F)c2c1-c1ccc(F)cc1
RESULT: < 5%

QUERY: Provide one value: measured Stability of CC(C)(C)c1sc2ncnc(Oc3ccccc3F)c2c1-c1ccccc1
RESULT: < 5%

----------
Target: UniProt:Q96LB2
Assay: Positive allosteric modulator activity at human MRGPRX1 transfected in HEK293 cells in presence of BAM8-22 by Fulo4AM dye based FLIPR assay
Format: cell-based
pEC50: −log10 of the molar value.
Short version: pEC50 at least 6 is Criterion met, less is Criterion not met.

Examples from the recorded data:
- Structure string: "Cc1csc2ncnc(Oc3ccccc3F)c12"
  Group label: "Criterion not met"
- Structure string: "Cc1sc2ncnc(Oc3cccc(C(F)(F)F)c3)c2c1C"
  Group label: "Criterion not met"
- Structure string: "CC(C)(C)c1sc2ncnc(Oc3ccccc3OC(F)(F)F)c2c1-c1ccc(F)cc1"
  Group label: "Criterion met"
- Structure string: "Fc1ccccc1Oc1ncnc2scc(C(F)(F)F)c12"
  Group label: "Criterion not met"
- Structure string: "Cc1sc2ncnc(Oc3ccccc3F)c2c1C"
  Group label: "Criterion met"
- Structure string: "Cc1ccccc1Oc1ncnc2sccc12"
  Group label: "Criterion not met"
- Structure string: "CC(C)(C)c1cc2c(Oc3ccccc3F)ncnc2s1"
  Group label: "Criterion met"
- Structure string: "Cc1sc2ncnc(Oc3ccc(C(F)(F)F)cc3)c2c1C"
  Group label: "Criterion not met"

# next molecule below
QUERY: Dear colleague, could you confirm whether CC(C)(C)c1sc2ncnc(Oc3ccccc3F)c2c1-c1ccccc1 has pEC50 at or above 6?
RESULT: Criterion met

----------
Assay: Ratio of AUClast in CD1 mouse brain to plasma at 100 mg/kg, po measured upto 6 hrs by LC-MS/MS analysis
Type: ADME, organism-based
Measure name: Kp at 6 h
// response body must contain only the number

QUERY: # return recorded Kp at 6 h for entry CC(C)(C)c1sc2ncnc(Oc3ccccc3OC(F)(F)F)c2c1-c1ccc(Cl)c(Cl)c1
RESULT: 2.2

----------
Assay: Ratio of AUClast in CD1 mouse spinal cord to plasma at 100 mg/kg, po measured upto 6 hrs by LC-MS/MS analysis
Type: ADME, organism-based
Measure name: Kp at 6 h
// no unit, no text: just the number

QUERY: Dear colleague, please send me the reported Kp at 6 h for CC(C)(C)c1sc2ncnc(Oc3ccccc3OC(F)(F)F)c2c1-c1ccc(Cl)c(Cl)c1 when you can.
RESULT: 12.7

----------
Test: Metabolic stability in human microsome assessed as compound remaining measured after 30 min in presence of NADPH regenerating system by LC-MS/MS analysis
Assay type: ADME, Liver
Details: microsomes, 0.5 h
# Stability listing for each entry below

- Structure string: "CC(C)(C)c1sc2ncnc(Oc3ccccc3OC(F)(F)F)c2c1-c1ccc(F)cc1"
  Stability: "> 95%"
- Structure string: "CC(C)(C)c1cc2c(Oc3ccccc3F)ncnc2s1"
  Stability: "75%"
- Structure string: "CC(C)(C)c1sc2ncnc(Oc3ccccc3F)c2c1-c1ccc(F)cc1"
  Stability: "> 95%"
- Structure string: "Cc1sc2ncnc(Oc3ccccc3F)c2c1C"
  Stability: "< 5%"
- Structure string: "Fc1ccccc1Oc1ncnc2scc(C(F)(F)F)c12"
  Stability: "40%"

Please turn your attention to the following entry.
QUERY: For CC(C)(C)c1sc2ncnc(Oc3ccccc3OC(F)(F)F)c2c1-c1ccc(Cl)c(Cl)c1 , write its Stability.
RESULT: > 95%

----------
Target: hERG (KCNH2) (Homo sapiens)
Sequence (Q12809 whole entry): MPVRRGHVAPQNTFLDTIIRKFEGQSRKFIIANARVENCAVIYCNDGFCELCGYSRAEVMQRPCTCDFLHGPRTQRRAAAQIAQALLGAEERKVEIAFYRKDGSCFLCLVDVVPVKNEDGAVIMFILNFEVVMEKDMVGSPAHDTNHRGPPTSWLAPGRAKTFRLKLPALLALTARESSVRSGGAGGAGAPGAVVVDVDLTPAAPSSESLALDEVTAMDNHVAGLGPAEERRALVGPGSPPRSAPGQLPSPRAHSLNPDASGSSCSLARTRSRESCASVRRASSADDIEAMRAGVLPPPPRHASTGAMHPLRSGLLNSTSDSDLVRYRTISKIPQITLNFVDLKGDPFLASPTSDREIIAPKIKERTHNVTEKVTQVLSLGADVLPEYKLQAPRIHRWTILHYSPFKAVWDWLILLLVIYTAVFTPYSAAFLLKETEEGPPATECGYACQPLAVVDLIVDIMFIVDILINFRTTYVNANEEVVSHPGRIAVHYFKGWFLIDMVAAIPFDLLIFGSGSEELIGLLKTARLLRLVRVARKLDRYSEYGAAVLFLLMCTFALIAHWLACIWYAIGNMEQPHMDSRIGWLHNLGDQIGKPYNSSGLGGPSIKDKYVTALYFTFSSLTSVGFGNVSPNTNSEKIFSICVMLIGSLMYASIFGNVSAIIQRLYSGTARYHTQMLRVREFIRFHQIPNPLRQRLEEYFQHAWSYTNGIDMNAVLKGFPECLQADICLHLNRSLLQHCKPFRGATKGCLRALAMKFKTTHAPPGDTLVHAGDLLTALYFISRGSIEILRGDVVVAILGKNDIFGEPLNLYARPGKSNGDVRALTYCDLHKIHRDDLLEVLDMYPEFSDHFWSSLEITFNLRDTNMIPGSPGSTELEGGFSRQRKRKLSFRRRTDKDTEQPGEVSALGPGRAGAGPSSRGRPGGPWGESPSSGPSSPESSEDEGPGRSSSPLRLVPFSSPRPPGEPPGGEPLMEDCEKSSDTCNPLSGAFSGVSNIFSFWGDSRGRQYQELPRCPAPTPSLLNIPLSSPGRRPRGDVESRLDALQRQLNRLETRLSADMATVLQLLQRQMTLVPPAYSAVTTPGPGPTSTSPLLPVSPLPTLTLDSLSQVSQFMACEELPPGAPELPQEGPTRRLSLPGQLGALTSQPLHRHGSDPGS
Experiment: Inhibition of hERG at 10 uM relative to control
Type: toxicity
Measure name: inhibition at 10 µM (%)
The figure you give is taken to be in %; do not add the unit.

QUERY: Supply recorded inhibition at 10 µM for CC(C)(C)c1sc2ncnc(Oc3ccccc3OC(F)(F)F)c2c1-c1ccc(Cl)c(Cl)c1 here.
RESULT: 50

----------
Assay: Metabolic stability in mouse microsome assessed as compound remaining measured after 30 min in presence of NADPH regenerating system by LC-MS/MS analysis
Assay type: ADME, Liver
Conditions: microsomes, 0.5 h
Measure name: Stability

QUERY: For the compound CC(C)(C)c1sc2ncnc(Oc3ccccc3F)c2c1-c1ccc(F)cc1 , report Stability.
RESULT: 7%

QUERY: Supply measured Stability of CC(C)(C)c1sc2ncnc(Oc3ccccc3OC(F)(F)F)c2c1-c1ccc(Cl)c(Cl)c1 in your reply.
RESULT: 58%

QUERY: Answer with reported Stability of CC(C)(C)c1sc2ncnc(Oc3ccccc3OC(F)(F)F)c2c1-c1ccc(F)cc1
RESULT: 28%

QUERY: Please list Stability recorded for the compound CC(C)(C)c1sc2ncnc(Oc3ccccc3F)c2c1-c1ccccc1
RESULT: 14%

QUERY: Determine its reported Stability: CC(C)(C)c1cc2c(Oc3ccccc3F)ncnc2s1
RESULT: < 5%

QUERY: Give me measured Stability, please, for this compound: Cc1sc2ncnc(Oc3ccccc3F)c2c1C
RESULT: < 5%

QUERY: In one line, give reported Stability of the entry Fc1ccccc1Oc1ncnc2scc(C(F)(F)F)c12 .
RESULT: < 5%

meta.source: ChEMBL document CHEMBL5038664
